Dear all, this message contains Ki results, target or system JNK1α1 (Homo sapiens).

Compound: O=C(Cn1cc(-c2ccccn2)nn1)Nc1cc2cc(-c3cn[nH]c3)ccc2cn1 [Example 30]
Experimental Target: JNK1α1 (Homo sapiens)
Ki: 18 nM
--
Compound: CCC(CO)NC(=O)c1cccc2cnc(N[C@H]3CC[C@H](O)CC3)nc12 (stereo partly shown) [Example 442]
Experimental Target: JNK1α1 (Homo sapiens)
Ki: 83 nM
--
Compound: O=C(NCC1(O)CCCCC1)c1ccc2cnc(N[C@H]3CC[C@H](O)CC3)nc2c1 [Example 327]
Experimental Target: JNK1α1 (Homo sapiens)
Ki: 254 nM

Please report the recorded Ki for O=C(NCCN1CCCC1=O)c1ccc2cnc(N[C@H]3CC[C@H](O)CC3)nc2c1 [Example 367] .
2180 nM

====

Experimental Target: JNK1α1 (Homo sapiens, UniProt P45983)
Construct: catalytic domain containing amino acids 1-364 and N-terminal hexahistidine tag; hexahistidine (His6) (N); made in house; host or cells: E. coli BL21 (DE3)
Sequence (P45983 1-364): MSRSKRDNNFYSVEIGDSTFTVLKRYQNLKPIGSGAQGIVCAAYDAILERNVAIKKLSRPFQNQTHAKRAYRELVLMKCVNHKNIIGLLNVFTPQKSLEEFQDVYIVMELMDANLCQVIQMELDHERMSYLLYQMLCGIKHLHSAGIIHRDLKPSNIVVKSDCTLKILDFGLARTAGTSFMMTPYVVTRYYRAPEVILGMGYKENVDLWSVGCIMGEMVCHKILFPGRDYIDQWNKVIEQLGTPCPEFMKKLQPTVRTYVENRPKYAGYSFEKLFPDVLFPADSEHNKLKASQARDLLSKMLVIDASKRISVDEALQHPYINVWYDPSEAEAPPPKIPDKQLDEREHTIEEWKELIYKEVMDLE
Method Summary: Coupled spectrophotometric (PK/LDH) JNK1α1 assay: % inhibition and Ki determination
Format: biochemical
Condition Summary: @10 uM; read-out: % Inhibition JNK-1
Returns Criterion met if the recorded inhibition at 10 µM is greater than or equal to 50%, and Criterion not met otherwise.

Assess whether reported inhibition at 10 µM for Cc1cc(C)nc(CNC(=O)c2cccc3cnc(N[C@H]4CC[C@H](O)CC4)nc23)n1 sits at 50% or higher.
Criterion not met

Thanks! And CN1CCCC(COc2cccc3cnc(N[C@H]4CC[C@H](O)CC4)nc23)C1 (stereo partly shown) ?
Criterion not met

Thanks! And Cc1nnc(C(C)NC(=O)c2cccc3cnc(N[C@H]4CC[C@H](O)CC4)nc23)[nH]1 (stereo partly shown) ?
Criterion not met

Thanks! And CN1CC(CNC(=O)c2cccc3cnc(N[C@H]4CC[C@H](O)CC4)nc23)OCC1=O (stereo partly shown) ?
Criterion not met

Thanks! And Cn1ccnc1-c1ccc(CNc2cc3cc(-c4cn[nH]c4)ccc3cn2)cc1 ?
Criterion not met

Thanks! And Cc1cc(C)n(CC(C)NC(=O)c2cccc3cnc(N[C@H]4CC[C@H](O)CC4)nc23)n1 (stereo partly shown) ?
Criterion met

Thanks! And Cc1nnc(CNC(=O)c2cccc3cnc(N[C@H]4CC[C@H](O)CC4)nc23)[nH]1 ?
Criterion not met

Thanks! And CC(=O)N1CCC(CNC(=O)c2cccc3cnc(N[C@H]4CC[C@H](O)CC4)nc23)CC1 ?
Criterion met

Thanks! And O=C(NCc1ccc(C2CC2)cn1)c1cccc2cnc(N[C@H]3CC[C@H](O)CC3)nc12 ?
Criterion met

Thanks! And CC(C)Nc1ncc2ccc(C(=O)NC(C)(C)CO)cc2n1 ?
Criterion not met

Thanks! And COc1ccccc1-c1ncc(CNc2cc3cc(-c4cn[nH]c4)ccc3cn2)cn1 ?
Criterion not met

Thanks! And c1ccc(Cn2cccn2)c(CNc2cc3cc(-c4cn[nH]c4)ccc3cn2)c1 ?
Criterion not met

Thanks! And CC[C@@H](CO)NC(=O)c1ccc2cnc(NC3CCCC3)nc2c1 ?
Criterion met

====

Experimental Target: JNK1α1 (Homo sapiens)
Construct: catalytic domain containing amino acids 1-364 and N-terminal hexahistidine tag; hexahistidine (His6) (N); made in house; host or cells: E. coli BL21 (DE3)
Method Summary: Coupled spectrophotometric (PK/LDH) JNK1α1 assay: % inhibition and Ki determination
Assay type: biochemical
Condition Summary: @10 uM; read-out: % Inhibition JNK-1
Returns Met if the recorded inhibition at 10 µM is greater than or equal to 40%, and Not met otherwise.

Study these solved cases before continuing.
Compound: CC(C)(CO)NC(=O)c1ccc2cnc(NC3CCC3)nc2c1 [Example 439]
Experimental Target: JNK1α1 (Homo sapiens)
Class: Met
//
Compound: CC(C)c1noc(CNC(=O)c2cccc3cnc(N[C@H]4CC[C@H](O)CC4)nc23)n1 [Example 500]
Experimental Target: JNK1α1 (Homo sapiens)
Class: Not met
//
Compound: CN1CCCCC1COc1cccc2cnc(N[C@H]3CC[C@H](O)CC3)nc12 (some centres unmarked) [Example 252]
Experimental Target: JNK1α1 (Homo sapiens)
Class: Met
//
Compound: Cc1cc(C)nc(NC(=O)c2cccc3cnc(N[C@H]4CC[C@H](O)CC4)nc23)n1 [Example 313]
Experimental Target: JNK1α1 (Homo sapiens)
Class: Met
//
Compound: Cc1noc(CCNC(=O)c2cccc3cnc(N[C@H]4CC[C@H](O)CC4)nc23)n1 [Example 523]
Experimental Target: JNK1α1 (Homo sapiens)
Class: Met
//
Compound: O[C@H]1CC[C@H](Nc2ncc3cccc(OC[C@@H]4CCCN5CCCC[C@H]45)c3n2)CC1 [Example 263]
Experimental Target: JNK1α1 (Homo sapiens)
Class: Not met

Consider the additional compound presented here.
Assess whether reported inhibition at 10 µM for CCN1CCC(Oc2cccc3cnc(N[C@H]4CC[C@H](O)CC4)nc23)C1 (some centres unmarked) [Example 259] sits at 40% or higher.
Met

====

Dear all, this message contains Ki results, target or system UniProt:P45983.
Output spec: scalar in µM, unitless text.

Compound: Fc1ccc2cnc(NC3CCCCC3)nc2c1 [Example 148]
Ki, µM: 0.456

Compound: CC(=O)N[C@H]1CC[C@H](Nc2ncc3cccc(OC4CCOC4)c3n2)CC1 (some centres unmarked) [Example 184]
Ki, µM: 0.674

Compound: Cc1nnc(CNC(=O)c2ccc3cnc(N[C@H]4CC[C@H](O)CC4)nc3c2)o1 [Example 355]
Ki, µM: 1.39

Please report the recorded Ki for Cc1sc(-c2ccccc2)nc1CC(=O)Nc1cc2cc(-c3cn[nH]c3)ccc2cn1 [Example 46] .
0.005

Thanks! And CC[C@H](C)[C@@H](CO)NC(=O)c1ccc2cnc(NC3CCC3)nc2c1 [Example 414] ?
1.31

Thanks! And O=C(NCC1(O)CCOCC1)c1ccc2cnc(N[C@H]3CC[C@H](O)CC3)nc2c1 [Example 360] ?
1.73

Thanks! And CC(C)[C@@H]1CC[C@@H](C)C[C@H]1OCC(=O)Nc1cc2cc(-c3cn[nH]c3)ccc2cn1 [Example 57] ?
0.004

Thanks! And O[C@H]1CC[C@H](Nc2ncc3cccc(OCC4CCCCO4)c3n2)CC1 (some centres unmarked) [Example 243] ?
0.233

====

Experimental Target: JNK1α1 (Homo sapiens)
pKi: −log10 of the molar value.
Returns MET if the recorded pKi is greater than or equal to 7, and NOT MET otherwise.

Study these solved cases before continuing.
Compound: O=C(N[C@H]1CC[C@@H](CO)CC1)c1cccc2cnc(N[C@H]3CC[C@H](O)CC3)nc12 [Example 466]
Class: NOT MET

Compound: O=C(CCc1cn2cccnc2n1)Nc1cc2cc(-c3cn[nH]c3)ccc2cn1 [Example 18]
Class: MET

Compound: CC(C)C[C@@H](CO)NC(=O)c1ccc2cnc(NC3CCC3)nc2c1 [Example 397]
Class: NOT MET

Compound: CC(C)NC(=O)c1ccc2cnc(N[C@H]3CC[C@H](O)CC3)nc2c1 [Example 64]
Class: NOT MET

Compound: CCC[C@@H](CO)NC(=O)c1ccc2cnc(NC3CCCC3)nc2c1 [Example 387]
Class: NOT MET

Assess whether reported pKi for O=C(CNC(=O)c1ccc(O)c(Cl)c1)Nc1cc2cc(-c3cn[nH]c3)ccc2cn1 [Example 56] sits at 7 or higher.
MET

Thanks! And O=C(NC1CCS(=O)(=O)C1)c1ccc2cnc(N[C@H]3CC[C@H](O)CC3)nc2c1 (some centres unmarked) [Example 79] ?
NOT MET

====

Experimental Target: JNK1α1 (Homo sapiens, UniProt P45983)
Catalogue of compounds with associated pKi
Please express pKi as -log10 of the molar concentration.

Compound: O=C(NC1CCS(=O)(=O)C1)c1ccc2cnc(N[C@H]3CC[C@H](O)CC3)nc2c1 (stereo partly drawn) [Example 60]
pKi: 6.80
--
Compound: O=C(COc1ccc2ccccc2c1)Nc1cc2cc(-c3cn[nH]c3)ccc2cn1 [Example 26]
pKi: 8.15
--
Compound: COc1ccc(CCCC(=O)Nc2cc3cc(-c4cn[nH]c4)ccc3cn2)cc1 [Example 41]
pKi: 7.85
--
Compound: O=C(NC(CO)c1ccccc1)c1ccc2cnc(NC3CCCC3)nc2c1 (stereo not drawn) [Example 379]
pKi: 6.75
--
Compound: N[C@H]1CC[C@H](Nc2ncc3cccc(OC4CCOCC4)c3n2)CC1 [Example 178]
pKi: 6.13
--
Compound: CC(C)[C@@H](CO)NC(=O)c1ccc2cnc(NC3CCCC3)nc2c1 [Example 407]
pKi: 6.13
--
Compound: Cc1ccc2cnc(N[C@H]3CC[C@H](O)CC3)nc2c1OCC(=O)NC1CCOCC1 [Example 210]
pKi: 5.77
--
Compound: CC(C)(N)CNC(=O)c1cccc2cnc(N[C@H]3CC[C@H](O)CC3)nc12 [Example 128]
pKi: 5.46
--
Compound: CC[C@@H](CO)NC(=O)c1cccc2cnc(N[C@H]3CC[C@H](O)CC3)nc12 [Example 441]
pKi: 7.24
--
Compound: O=C(NCC1CCCO1)c1ccc2cnc(N[C@H]3CC[C@H](O)CC3)nc2c1 (stereo partly drawn) [Example 340]
pKi: 6.08

Please report the recorded pKi for CC(=O)N[C@H]1CC[C@H](Nc2ncc3cccc(C(=O)NC(C)(C)CO)c3n2)CC1 [Example 134] .
6.90

Thanks! And O=C(NCCCO)c1ccc2cnc(N[C@H]3CC[C@H](O)CC3)nc2c1 [Example 338] ?
6.20

Thanks! And CC(C)C(=O)Nc1cc2cc(-c3cn[nH]c3)ccc2cn1 [Example 16] ?
7.51

Thanks! And COC(=O)N1CCC(c2cccc3cnc(N[C@H]4CC[C@H](O)CC4)nc23)C1 (stereo partly drawn) [Example 196] ?
7.25

Thanks! And Cc1ccc2cnc(N[C@H]3CC[C@H](O)CC3)nc2c1OCC(=O)N(C)CCO [Example 212] ?
5.71

Thanks! And O=C(CNC(=O)C1(c2ccccc2)CC1)Nc1cc2cc(-c3cn[nH]c3)ccc2cn1 [Example 35] ?
8.10

Thanks! And O=C(NCCO)c1ccc2cnc(N[C@H]3CC[C@H](O)CC3)nc2c1 [Example 346] ?
6.02

Thanks! And O=C(NCc1ccccn1)c1ccc2cnc(N[C@H]3CC[C@H](O)CC3)nc2c1 [Example 86] ?
6.66
